Collected literature values of Ki measured for UniProt P14842.
observed_property: Ki (nM)

molecule	tgt	value_units	prefix_operator	observed_value
COc1ccccc1N1CCN(CCCCN2C(=O)C3C(C2=O)C2(C)C(=O)C3(C)C(c3ccccc3)=C2c2ccccc2)CC1 (stereo not given)	UniProt P14842	nM	=	200
O=C1CC(CN2CCC(c3noc4cc(F)ccc34)CC2)Cc2[nH]c3ccccc3c21 (stereo not given)	UniProt P14842	nM	=	1.58
CCN(C)C(=O)N1CCC(CN2CCC(c3noc4cc(F)ccc34)CC2)CC1	UniProt P14842	nM	=	1100
O=C1C2CCCN2C(=O)N1CCCCCCNCC1CCc2ccccc2O1 (stereo not given)	UniProt P14842	nM	>	1000
Fc1ccc(-n2cc(CN3CCN(c4ccccc4)CC3)cn2)cc1	UniProt P14842	nM	=	920
COc1cc(NC(=O)C2CC2)c(Cl)cc1C(=O)N[C@H]1CCN(Cc2ccccc2)C1	UniProt P14842	nM	>	10000
CC(C)Oc1ccccc1OCCNCc1cccc(C2CC2)c1	UniProt P14842	nM	=	110
Clc1ccccc1N1CCN(CCCc2ccccc2)CC1	UniProt P14842	nM	=	952
COc1ccccc1N1CCN(CCNc2ccn3c(n2)nc2c3c(=O)n(C)c(=O)n2C)CC1	UniProt P14842	nM	=	246
O=C(NC1CCN(Cc2ccncc2)CC1)c1ccc2ccccc2c1	UniProt P14842	nM	=	695
CC(C)c1ccccc1OCCNCCCCN1C(=O)C2CCCN2C1=O (stereo not given)	UniProt P14842	nM	=	260
O=C1CCc2cc(C(O)CCCN3CCC(c4noc5cc(F)ccc45)CC3)cc3c2N1CCC3 (stereo not given)	UniProt P14842	nM	=	24.2
Cc1cccc(N2CCN(CCCCCCN3CCN(c4cccc(C)n4)CC3)CC2)c1	UniProt P14842	nM	=	6
Fc1ccc(-c2cncc(CNC[C@H]3CCc4ccccc4O3)c2)cc1	UniProt P14842	nM	=	2140
CC(C)Oc1ccccc1OCCNCc1cccc(C2=CCCCC2)c1	UniProt P14842	nM	=	191
NC(=O)c1cccc2c1C[C@@H](N)CO2	UniProt P14842	nM	>	1000
CC1CCc2ccc(OCCCCN3CCC(c4nsc5ccccc45)CC3)cc2C1=O (stereo not given)	UniProt P14842	nM	=	890
O=C(CCN1CCN(c2ccccn2)CC1)c1cc2c3c(c1)CCC(=O)N3CCC2	UniProt P14842	nM	=	675
O=C(NCCCN1CCC(c2nc3ccccc3o2)CC1)C1COc2ccccc2O1 (stereo not given)	UniProt P14842	nM	=	88
COc1ccccc1N1CCN(CCCCc2ccc3c(c2)OCC(=O)N3CCN2CCC(C(=O)c3ccc(F)cc3)CC2)CC1	UniProt P14842	nM	=	14
O=c1ccc(=O)n(-c2ccccc2)n1CCCN1CCN(c2cccc(Cl)c2)CC1	UniProt P14842	nM	=	269
C/N=C1\NC(=O)/C(=C/c2c[nH]c3cccc(Br)c23)N1	UniProt P14842	nM	=	470
COc1ccc2c(c1)nc(N1CCNCC1)n2Cc1ccccc1	UniProt P14842	nM	>	1000
O=C(O)CN1CCN(c2ccc3ccccc3n2)CC1	UniProt P14842	nM	>	10000
O=C1C2CCCN2C(=O)N1CCCNCC1CCc2ccccc2O1 (stereo not given)	UniProt P14842	nM	>	1000

----------
pKi: −log10 of the molar value.
# literature pull: 5-hydroxytryptamine receptor 2A (Rattus norvegicus, UniProt P14842) pKi
# Sequence (P14842 whole entry): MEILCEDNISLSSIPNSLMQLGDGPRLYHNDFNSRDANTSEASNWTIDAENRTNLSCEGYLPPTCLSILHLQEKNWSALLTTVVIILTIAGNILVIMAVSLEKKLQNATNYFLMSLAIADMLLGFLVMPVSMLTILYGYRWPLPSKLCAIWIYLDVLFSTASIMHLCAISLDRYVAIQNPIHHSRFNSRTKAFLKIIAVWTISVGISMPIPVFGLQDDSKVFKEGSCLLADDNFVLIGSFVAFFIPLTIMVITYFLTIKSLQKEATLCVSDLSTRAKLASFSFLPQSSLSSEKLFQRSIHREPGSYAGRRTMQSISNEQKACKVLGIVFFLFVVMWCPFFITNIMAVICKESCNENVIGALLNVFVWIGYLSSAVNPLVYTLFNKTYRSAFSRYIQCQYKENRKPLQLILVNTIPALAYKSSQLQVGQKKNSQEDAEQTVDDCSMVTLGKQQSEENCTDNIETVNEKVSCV

compound	prefix_operator	pKi
Fc1ccc(CC2CCN(CCCCc3ccccc3)CC2)cc1	=	7.40
Cn1c2c(c3cc(Cl)ccc31)CN(CCCOc1ccc(F)cc1)CC2	=	6.89
O=C1CC(CN2CCC(c3noc4cc(F)ccc34)CC2)C(c2ccccc2)=NN1 (stereo unspecified)	=	7.24
O=[N+]([O-])c1ccc(S(=O)(=O)N2CCC(CCN3CCC(c4noc5cc(F)ccc45)CC3)CC2)cc1	=	7.18
CCOc1nc2c(c(=O)n(C)c(=O)n2C)n1CCCN1CCN(c2cccc(Cl)c2)CC1	=	7.64
O=C(NCCN1CCN(c2ccccc2)CC1)c1ccccn1	=	7.27
Cl.Cn1c(=O)c2c(ncn2CCCCCN2CCN(c3ccccc3)CC2)n(C)c1=O	=	6.51
Oc1ccc(N2CCN(Cc3cn(-c4ccc(Cl)cc4)nn3)CC2)cc1	<	4.72
CN(C)CCC(Oc1ccc(NC(=O)Nc2ccc3c(ccn3C)c2)cc1)c1ccccc1 (stereo unspecified)	=	6.62
Cn1c2c(c3ccccc31)CN(CCCOc1ccc(Cl)c(Cl)c1)CC2	=	6.71
O=C1C2CCCN2C(=O)N1CCCCNCCOc1ccccc1-c1ccccc1 (stereo unspecified)	<	6.00

----------
Record set: Ki | 5-hydroxytryptamine receptor 2A (Rattus norvegicus, UniProt P14842) | literature, multiple sources.

compound	Ki / nM
COc1ccccc1N1CCN(CN2C(=O)C3CCCCN3C2=O)CC1 (stereo unspecified)	1000
O=C1c2ccccc2CN1CCCCN1CCC(c2ccccc2)C1 (stereo unspecified)	46
O=C(CCN1CCC(c2noc3cc(F)ccc23)CC1)c1cc2c3c(c1)CCN3C(=O)CC2	17.4
C(/Cc1ccccc1)=C(\c1ccccc1)C1CCN(CCCCc2ccccc2)CC1	100
COc1ccc(N2CCN(CCCOc3ccc(=O)n(-c4ccc(Cl)c(Cl)c4)n3)CC2)cc1	543
O=C(CCN1CCN(c2nsc3ccccc23)CC1)c1cc2c3c(c1)CCC(=O)N3CCC2	72

----------
Please find below Ki measurements for UniProt P14842, combined from several publications.

compound	prefix_operator	Ki / nM
COc1ccccc1N1CCN(CCCn2c(-c3ccccc3)cn3c4c(=O)n(C)c(=O)n(C)c4nc23)CC1	>	1000
CC(C)NC(=O)c1cccc2c1C[C@@H](NC(C)C)CO2	>	10000
NCC1c2ccccc2CCc2ccccc21	=	112
CCOc1nc2c(c(=O)n(C)c(=O)n2C)n1CCCCN1CCN(c2cccc(Cl)c2)CC1	=	15
O=C1C2C3C=CC(C3)C2C(=O)N1OCC(O)CN1CCN(c2ccccc2)CC1 (configuration not stated)	=	336
COc1ccccc1N1CCN(CCCNC(=O)[C@@H]2CCCN2C(C)=O)CC1	=	3140
Cc1cccc(N2CCN(CCCOc3ccc(-c4nc5ccccc5o4)cc3)CC2)c1C	=	2140

----------
Here is a set of compounds with reported Ki for 5-hydroxytryptamine receptor 2A (Rattus norvegicus), compiled from the literature.
observed_property: Ki (nM)

compound	tgt	observed_property	prefix_operator	observed_value
Cc1ccc(S(=O)(=O)N2CCN(CCCCOc3ccc4c(C)cc(=O)oc4c3)CC2)cc1	5-hydroxytryptamine receptor 2A (Rattus norvegicus)	Ki	>	10000
Cc1cccc(N2CCN(CCNC(=O)c3ccccn3)CC2)c1C	5-hydroxytryptamine receptor 2A (Rattus norvegicus)	Ki	>	10000
O=C1CSC(=O)N1CCCCCCCCNCC1CCc2ccccc2O1 (configuration not stated)	5-hydroxytryptamine receptor 2A (Rattus norvegicus)	Ki	>	1000
N#CNC(=NCCCN1CCN(c2cccc3ccccc23)CC1)c1ccncc1	5-hydroxytryptamine receptor 2A (Rattus norvegicus)	Ki	=	172
O=c1ccc(OCCCN2CCC(c3c[nH]c4ccccc34)CC2)nn1-c1ccc(Cl)c(Cl)c1	5-hydroxytryptamine receptor 2A (Rattus norvegicus)	Ki	=	74.5
Cn1c(=O)c2c(nc3nc(NCCN4CCN(c5cccc(Cl)c5)CC4)ccn32)n(C)c1=O	5-hydroxytryptamine receptor 2A (Rattus norvegicus)	Ki	=	234
N[C@]1(C(=O)O)C[C@H](C(=O)O)C[C@@H]1C(=O)O	5-hydroxytryptamine receptor 2A (Rattus norvegicus)	Ki	>	50000
CCOC(=O)c1[nH]c2ccc(CCN3C(=O)CNC3=O)cc2c1CCN(C)C	5-hydroxytryptamine receptor 2A (Rattus norvegicus)	Ki	=	7940
O=C1CC(C2CCCCC2)C(=O)N1CCN1CCN(c2cccc(Cl)c2)CC1 (configuration not stated)	5-hydroxytryptamine receptor 2A (Rattus norvegicus)	Ki	=	137
O=C1C2CCCN2C(=O)CN1CN1CCN(c2cccc3ccccc23)CC1 (configuration not stated)	5-hydroxytryptamine receptor 2A (Rattus norvegicus)	Ki	=	13.5
O=c1c2ccccc2c(=O)n(-c2ccccc2)n1CCCN1CCN(c2cccc(Cl)c2)CC1	5-hydroxytryptamine receptor 2A (Rattus norvegicus)	Ki	=	661
O=c1ccc(OCCCN2CCN(c3csc4ccccc34)CC2)nn1-c1ccc(Cl)c(Cl)c1	5-hydroxytryptamine receptor 2A (Rattus norvegicus)	Ki	=	81.2
CC(=O)Nc1ccccc1N1CCN(CCCCCC(=O)NC2CCCc3ccccc32)CC1 (configuration not stated)	5-hydroxytryptamine receptor 2A (Rattus norvegicus)	Ki	=	3520
O=C(CCN1CCC(c2noc3cc(F)ccc23)CC1)c1cc2c3c(c1)CCC(=O)N3CCC2	5-hydroxytryptamine receptor 2A (Rattus norvegicus)	Ki	=	52.3
COc1ccccc1N1CCN(CCCOc2ccc3c(c2)C(=O)N(C)CC3)CC1	5-hydroxytryptamine receptor 2A (Rattus norvegicus)	Ki	=	992
C/N=C1\N(C)C(=O)/C(=C\c2c[nH]c3cccc(Br)c23)N1C	5-hydroxytryptamine receptor 2A (Rattus norvegicus)	Ki	>	10000
CC(C)Oc1ccccc1OCCNCc1cccc(-c2ccccc2)c1	5-hydroxytryptamine receptor 2A (Rattus norvegicus)	Ki	=	724
Cc1cc(=O)oc2cc(OCC(O)CN3CCC(c4noc5cc(F)ccc45)CC3)ccc12 (configuration not stated)	5-hydroxytryptamine receptor 2A (Rattus norvegicus)	Ki	=	453
CN1C(=N)N/C(=C/c2c[nH]c3cccc(Br)c23)C1=O	5-hydroxytryptamine receptor 2A (Rattus norvegicus)	Ki	=	8670
O=C(NC1CCN(Cc2cccnc2)CC1)c1ccc2ccccc2c1	5-hydroxytryptamine receptor 2A (Rattus norvegicus)	Ki	=	524
O=C(Nc1cccnc1)N1CCc2cc3[nH]ccc3cc21	5-hydroxytryptamine receptor 2A (Rattus norvegicus)	Ki	=	1580
O=C1Cc2ccccc2N1CCCN1CCN(c2cccc(Cl)c2)CC1	5-hydroxytryptamine receptor 2A (Rattus norvegicus)	Ki	=	25
Cc1cccc(N2CCN(CCCCCCN3CCN(c4ccccc4)CC3)CC2)c1	5-hydroxytryptamine receptor 2A (Rattus norvegicus)	Ki	=	10
CN1CCc2ccc(OCC(F)CN3CCC(c4noc5cc(F)ccc45)CC3)cc2C1=O (configuration not stated)	5-hydroxytryptamine receptor 2A (Rattus norvegicus)	Ki	=	23.7
Cn1c2c(c3ccccc31)CN(CCCOc1ccc(F)cc1)CC2	5-hydroxytryptamine receptor 2A (Rattus norvegicus)	Ki	=	30
O=c1ccc(OCCCN2CCC(c3noc4cc(F)ccc34)CC2)nn1-c1ccc(Cl)c(Cl)c1	5-hydroxytryptamine receptor 2A (Rattus norvegicus)	Ki	=	21.7
Fc1ccc2c(C3CCN(CCCCOc4ccc(-c5nc6ccccc6o5)cc4)CC3)noc2c1	5-hydroxytryptamine receptor 2A (Rattus norvegicus)	Ki	=	729
Fc1ccc(N2CCN(Cc3cn(-c4ccc(F)cc4)nn3)CC2)cc1	5-hydroxytryptamine receptor 2A (Rattus norvegicus)	Ki	=	4670
CN1CCc2ccc(OCCCN3CCN(c4cccc(C(F)(F)F)c4)CC3)cc2C1=O	5-hydroxytryptamine receptor 2A (Rattus norvegicus)	Ki	=	102
COc1ccccc1N1CCN(CCCCc2ccc3c(c2)sc(=O)n3CCN2CCC(=C(c3ccc(F)cc3)c3ccc(F)cc3)CC2)CC1	5-hydroxytryptamine receptor 2A (Rattus norvegicus)	Ki	=	7
O=C1c2ccccc2S(=O)(=O)N1CCCCN1CCC(c2ccc(Cl)cc2)C1 (configuration not stated)	5-hydroxytryptamine receptor 2A (Rattus norvegicus)	Ki	=	232
O=c1ccc(OCCCN2CCC(c3noc4cc(F)ccc34)CC2)nn1-c1ccc(F)cc1	5-hydroxytryptamine receptor 2A (Rattus norvegicus)	Ki	=	25.9
